This section presents compounds with their documented hERG current change (%, negative = inhibition) at 10uM values.
# SYSTEM UNDER TEST: human ether-à-go-go-related gene (hERG) potassium channel (human, UniProt Q12809);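 also: peak tail current of the secondary pulse compared with the same well before compound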
# Sequence (Q12809 whole entry, looked up): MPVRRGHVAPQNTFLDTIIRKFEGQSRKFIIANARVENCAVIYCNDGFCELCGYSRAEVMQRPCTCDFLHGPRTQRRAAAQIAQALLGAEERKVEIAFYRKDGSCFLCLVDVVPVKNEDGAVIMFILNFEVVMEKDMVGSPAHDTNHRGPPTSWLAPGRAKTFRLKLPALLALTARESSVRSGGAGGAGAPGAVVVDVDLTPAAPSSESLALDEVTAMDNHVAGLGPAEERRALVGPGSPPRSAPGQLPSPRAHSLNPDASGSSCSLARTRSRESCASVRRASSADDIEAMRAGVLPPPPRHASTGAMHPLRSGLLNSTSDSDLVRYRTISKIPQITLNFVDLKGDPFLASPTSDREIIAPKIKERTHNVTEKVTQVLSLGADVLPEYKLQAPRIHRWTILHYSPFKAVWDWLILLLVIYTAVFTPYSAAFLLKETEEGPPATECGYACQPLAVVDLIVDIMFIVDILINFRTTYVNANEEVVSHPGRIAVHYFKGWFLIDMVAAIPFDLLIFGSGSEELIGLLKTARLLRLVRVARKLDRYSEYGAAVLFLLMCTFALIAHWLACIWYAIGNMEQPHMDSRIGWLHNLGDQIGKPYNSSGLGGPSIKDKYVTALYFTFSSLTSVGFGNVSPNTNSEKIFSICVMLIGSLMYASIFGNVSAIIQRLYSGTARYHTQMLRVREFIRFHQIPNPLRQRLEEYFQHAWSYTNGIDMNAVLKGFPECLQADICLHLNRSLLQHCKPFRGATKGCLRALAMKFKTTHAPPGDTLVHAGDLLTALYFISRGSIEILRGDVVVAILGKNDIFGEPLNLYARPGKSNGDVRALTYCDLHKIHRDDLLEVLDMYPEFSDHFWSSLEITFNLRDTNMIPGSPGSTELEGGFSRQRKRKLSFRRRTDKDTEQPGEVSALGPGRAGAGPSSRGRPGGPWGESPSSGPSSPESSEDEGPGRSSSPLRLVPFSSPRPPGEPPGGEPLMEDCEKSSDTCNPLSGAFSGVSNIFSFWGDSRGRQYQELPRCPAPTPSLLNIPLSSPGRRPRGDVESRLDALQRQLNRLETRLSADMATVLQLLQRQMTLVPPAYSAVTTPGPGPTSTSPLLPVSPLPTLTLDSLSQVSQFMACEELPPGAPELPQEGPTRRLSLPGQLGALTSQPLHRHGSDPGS
# ASSAY EXPLANATION: primary screen, population patch clamp on CHO cells stably expressing hERG; higher = less effect of the substance
The whole screen tested about 310,000 compounds, of which about 14,000 (4.5%) showed an effect of 50% or more. The effect is printed as a negative number. Many of the other results were omitted from the sample, so strong results are more common in it than they were.
Answer format: numeric, % implied, no suffix.

{"COMPOUND": "CN(C(=O)C1CCCN(c2ncnc3c2nc2n3CCCCC2)C1)c1cccc(Cl)c1 (centres unmarked)", "READING": -45.9}
{"COMPOUND": "O=C(Nc1ccc(S(=O)(=O)N2CCOCC2)cc1)c1ccco1", "READING": -20.3}
{"COMPOUND": "O=C(CCc1nnc(C2CCCCC2)o1)N1CCN(C2CCCCC2)CC1", "READING": 10.4}
{"COMPOUND": "COc1ccc(Cl)cc1N(CC(=O)N1CCN(Cc2ccccc2)CC1)S(C)(=O)=O", "READING": -7.28}
{"COMPOUND": "CCOC(=O)C1=C(O)/C(=C/c2ccc(OCC(=O)Nc3ccc(C)cc3)cc2)N=C1C", "READING": 10.6}

Q: Please supply the value of reported hERG current change (%, negative = inhibition) at 10uM for the item `O=C(Nc1ccc(S(=O)(=O)N2CCCCCC2)cc1)c1ccco1`
Ans: -72.5

Q: Please supply the value of reported hERG current change (%, negative = inhibition) at 10uM for the item `O=C(Nc1ccc(S(=O)(=O)N2CCCCC2)cc1)c1ccccc1Cl`
Ans: -73.1

###

# SYSTEM UNDER TEST: human ether-à-go-go-related gene (hERG) potassium channel (human);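 also: peak tail current of the secondary pulse compared with the same well before compound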
# ASSAY EXPLANATION: primary screen, population patch clamp on CHO cells stably expressing hERG; higher = less effect of the substance
Out of some 310,000 compounds screened, about 14,000 (4.5%) showed an effect of 50% or more. Effects have a minus sign here. Many of the other results were omitted from the sample, so strong results are more common in it than they were.
READOUT NAME: hERG current change (%, negative = inhibition) at 10uM (%)
Answer format: numeric, % implied, no suffix.

Below: 3 compounds and their reported hERG current change (%, negative = inhibition) at 10uM.
{"COMPOUND": "COCCn1c(-c2ccc(F)cc2)nc2oc3cc(OC)ccc3c(=O)c2c1=O", "READING": -19.6}
{"COMPOUND": "Cc1ccc(NC(=O)C2(C)Cc3ccccc3C(=O)O2)cc1 (stereo not shown)", "READING": -5.03}
{"COMPOUND": "CC(C)(C)C(=O)Nc1ccc(-c2cc3cc(Cl)ccc3o2)cc1", "READING": 8.12}

Q: Please supply the value of reported hERG current change (%, negative = inhibition) at 10uM for the item O=C(NCCCc1ccncc1)C1CCC(=O)N(Cc2cccc(C(F)(F)F)c2)C1 (stereo not shown)
Ans: -18.7

Q: Please supply the value of reported hERG current change (%, negative = inhibition) at 10uM for the item `CCN(CC)S(=O)(=O)c1ccc(N2CCOCC2)c(NC(=O)COc2ccccc2C)c1`
Ans: 8.22

Q: Please supply the value of reported hERG current change (%, negative = inhibition) at 10uM for the item `Cc1c(C(=O)NNC(=O)c2csc(N3CCOCC3)n2)oc2ccccc12`
Ans: -38.7

Q: Please supply the value of reported hERG current change (%, negative = inhibition) at 10uM for the item CC1CCC(CN2CCN=C2Nc2ccccc2)CC1 (stereo not shown)
Ans: -14.7
